Collected hERG IC20/TLR8 IC50 values appear next to each entry.
biological target: hERG (Homo sapiens); construct: expressed in transfected cells; test: hERG channel inhibition assay (patch-clamp, CHO hERG cells); assay type: cell-based; conditions: safety ratio; >30 suggests sufficient window
Sequence (Q12809 whole entry): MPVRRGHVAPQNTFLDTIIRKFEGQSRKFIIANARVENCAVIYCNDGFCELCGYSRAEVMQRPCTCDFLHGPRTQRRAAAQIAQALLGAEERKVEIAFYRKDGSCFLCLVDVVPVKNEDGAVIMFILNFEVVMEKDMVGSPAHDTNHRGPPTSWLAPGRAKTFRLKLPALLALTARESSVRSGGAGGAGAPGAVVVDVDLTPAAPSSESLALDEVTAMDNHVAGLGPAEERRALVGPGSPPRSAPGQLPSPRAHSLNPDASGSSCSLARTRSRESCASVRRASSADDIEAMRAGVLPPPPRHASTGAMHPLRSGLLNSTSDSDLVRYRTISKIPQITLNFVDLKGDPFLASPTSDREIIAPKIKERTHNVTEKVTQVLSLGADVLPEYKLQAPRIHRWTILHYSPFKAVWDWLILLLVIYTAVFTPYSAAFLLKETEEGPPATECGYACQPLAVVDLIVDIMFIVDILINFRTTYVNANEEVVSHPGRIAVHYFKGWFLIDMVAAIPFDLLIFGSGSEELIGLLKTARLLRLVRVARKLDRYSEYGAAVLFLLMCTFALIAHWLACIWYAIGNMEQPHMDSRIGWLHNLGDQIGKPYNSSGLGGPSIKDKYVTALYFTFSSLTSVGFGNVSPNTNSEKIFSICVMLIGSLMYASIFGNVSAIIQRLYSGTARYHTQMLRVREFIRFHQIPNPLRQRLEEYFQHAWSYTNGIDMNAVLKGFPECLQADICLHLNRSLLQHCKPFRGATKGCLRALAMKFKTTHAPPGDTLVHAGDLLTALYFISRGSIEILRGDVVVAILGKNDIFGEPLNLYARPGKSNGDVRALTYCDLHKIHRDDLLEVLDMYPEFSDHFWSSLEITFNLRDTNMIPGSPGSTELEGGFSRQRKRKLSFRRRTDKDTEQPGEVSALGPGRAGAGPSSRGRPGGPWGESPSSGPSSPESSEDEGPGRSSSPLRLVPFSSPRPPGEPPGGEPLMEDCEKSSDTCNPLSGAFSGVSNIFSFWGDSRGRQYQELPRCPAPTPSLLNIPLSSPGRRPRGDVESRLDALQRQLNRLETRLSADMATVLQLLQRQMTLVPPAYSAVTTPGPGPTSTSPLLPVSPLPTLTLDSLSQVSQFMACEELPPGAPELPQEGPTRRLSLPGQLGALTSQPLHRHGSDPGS

{"columns": ["Molecule", "Target system", "Observed"],
 "data": [
  ["C[C@@H]1CN(c2ccc(C#N)c3ncccc23)C[C@H](C)N1Cc1ncc(N2CCNCC2)cn1", "hERG (Homo sapiens)", 355],
  ["C[C@@H]1CN(c2ccc(C#N)c3ncccc23)C[C@H](C)N1Cc1ccc(N2CCN(C(=O)C3CCCN3)CC2)cn1 (stereo partly drawn)", "hERG (Homo sapiens)", ">197"],
  ["C[C@@H]1CN(c2ccc(C#N)c3ncccc23)C[C@H](C)N1Cc1ccc(N2CCNCC2)cn1", "hERG (Homo sapiens)", ">666"]
]}

# hERG IC20/TLR8 IC50 of C[C@@H]1CN(c2ccc(C#N)c3ncccc23)C[C@H](C)N1CC(=O)N1Cc2ccc(N3CCNCC3)cc2C1 = >182

# hERG IC20/TLR8 IC50 of C[C@@H]1CN(c2ccc(C#N)c3ncccc23)C[C@H](C)N1Cc1ccc(N2CCN(C(=O)CN(C)C)CC2)cn1 = >289

# hERG IC20/TLR8 IC50 of C[C@@H]1CN(c2ccc(C#N)c3ncccc23)C[C@H](C)N1Cc1ccc(N2CCNCC2)nc1 = 240

* * *

Molecular target: human TLR8 (Homo sapiens, UniProt Q9NR97)
Sequence (Q9NR97 27-1041): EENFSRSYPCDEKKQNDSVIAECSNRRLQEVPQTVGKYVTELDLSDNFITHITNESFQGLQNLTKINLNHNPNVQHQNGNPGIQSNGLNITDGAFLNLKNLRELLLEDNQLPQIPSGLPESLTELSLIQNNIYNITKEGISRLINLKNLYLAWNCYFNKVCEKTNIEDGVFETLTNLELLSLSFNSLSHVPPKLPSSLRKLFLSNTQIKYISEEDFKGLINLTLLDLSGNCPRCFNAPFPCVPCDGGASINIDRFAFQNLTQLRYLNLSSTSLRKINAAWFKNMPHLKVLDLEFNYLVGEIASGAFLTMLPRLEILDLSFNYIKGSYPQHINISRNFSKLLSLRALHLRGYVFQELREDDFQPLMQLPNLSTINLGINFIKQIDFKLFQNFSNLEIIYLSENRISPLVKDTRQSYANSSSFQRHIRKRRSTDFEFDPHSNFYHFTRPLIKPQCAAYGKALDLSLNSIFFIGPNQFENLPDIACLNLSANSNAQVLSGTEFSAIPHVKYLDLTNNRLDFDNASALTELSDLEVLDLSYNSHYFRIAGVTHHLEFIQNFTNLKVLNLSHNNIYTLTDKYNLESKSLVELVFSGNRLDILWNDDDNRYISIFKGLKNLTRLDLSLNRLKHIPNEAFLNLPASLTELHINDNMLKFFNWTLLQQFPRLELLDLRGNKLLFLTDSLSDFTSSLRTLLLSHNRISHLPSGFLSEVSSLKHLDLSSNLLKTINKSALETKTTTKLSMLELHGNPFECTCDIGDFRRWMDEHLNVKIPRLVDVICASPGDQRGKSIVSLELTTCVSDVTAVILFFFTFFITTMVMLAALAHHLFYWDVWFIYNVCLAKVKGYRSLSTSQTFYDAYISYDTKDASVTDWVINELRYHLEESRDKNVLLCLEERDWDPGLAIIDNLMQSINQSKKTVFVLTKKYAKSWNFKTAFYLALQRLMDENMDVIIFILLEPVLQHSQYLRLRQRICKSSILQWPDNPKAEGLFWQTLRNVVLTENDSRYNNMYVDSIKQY
Test: HEK293-Blue-hTLR-8 cells assay (SEAP reporter, R848 stimulation)
Conditions: HEK293-Blue-hTLR8 cells, R848 ligand, 20 hrs incubation; read-out: HEK/hTLR8 IC50
Collected pIC50 values appear next to each entry.
Kindly note that pIC50 refers to -log10 of the concentration in mol/L and answer with the value alone.

Example compounds with recorded pIC50:
{"columns": ["Compound", "Target system", "pIC50"],
 "data": [
  ["C[C@@H]1CN(c2ccc(C#N)c3ncccc23)C[C@H](C)N1Cc1ccc(N2CCNCC2)cn1", "human TLR8 (Homo sapiens, UniProt Q9NR97)", 7.82],
  ["CC1CN(c2ccc(C#N)c3ncccc23)CCN1CC(=O)Nc1ccc2c(c1)CCNC2 (stereo not shown)", "human TLR8 (Homo sapiens, UniProt Q9NR97)", 7.40],
  ["C[C@@H]1CN(c2ccc(C#N)c3ncccc23)C[C@H](C)N1Cc1ccc(N[C@@H]2CNC[C@@H]2F)cn1", "human TLR8 (Homo sapiens, UniProt Q9NR97)", 7.66]
]}

# pIC50 of C[C@@H]1CN(c2ccc(C#N)c3ncccc23)C[C@H](C)N1Cc1ccc(N2CCN(C)CC2)cn1 = 7.72

* * *

target: UniProtKB Q9NR96; experiment: HEK293-Blue-hTLR-9 cells assay (SEAP reporter, ODN2006 stimulation); details: HEK293-Blue-hTLR9 cells, ODN2006 ligand, 20 hrs incubation; read-out: HEK/hTLR9 IC50
Sequence (Q9NR96 26-1032): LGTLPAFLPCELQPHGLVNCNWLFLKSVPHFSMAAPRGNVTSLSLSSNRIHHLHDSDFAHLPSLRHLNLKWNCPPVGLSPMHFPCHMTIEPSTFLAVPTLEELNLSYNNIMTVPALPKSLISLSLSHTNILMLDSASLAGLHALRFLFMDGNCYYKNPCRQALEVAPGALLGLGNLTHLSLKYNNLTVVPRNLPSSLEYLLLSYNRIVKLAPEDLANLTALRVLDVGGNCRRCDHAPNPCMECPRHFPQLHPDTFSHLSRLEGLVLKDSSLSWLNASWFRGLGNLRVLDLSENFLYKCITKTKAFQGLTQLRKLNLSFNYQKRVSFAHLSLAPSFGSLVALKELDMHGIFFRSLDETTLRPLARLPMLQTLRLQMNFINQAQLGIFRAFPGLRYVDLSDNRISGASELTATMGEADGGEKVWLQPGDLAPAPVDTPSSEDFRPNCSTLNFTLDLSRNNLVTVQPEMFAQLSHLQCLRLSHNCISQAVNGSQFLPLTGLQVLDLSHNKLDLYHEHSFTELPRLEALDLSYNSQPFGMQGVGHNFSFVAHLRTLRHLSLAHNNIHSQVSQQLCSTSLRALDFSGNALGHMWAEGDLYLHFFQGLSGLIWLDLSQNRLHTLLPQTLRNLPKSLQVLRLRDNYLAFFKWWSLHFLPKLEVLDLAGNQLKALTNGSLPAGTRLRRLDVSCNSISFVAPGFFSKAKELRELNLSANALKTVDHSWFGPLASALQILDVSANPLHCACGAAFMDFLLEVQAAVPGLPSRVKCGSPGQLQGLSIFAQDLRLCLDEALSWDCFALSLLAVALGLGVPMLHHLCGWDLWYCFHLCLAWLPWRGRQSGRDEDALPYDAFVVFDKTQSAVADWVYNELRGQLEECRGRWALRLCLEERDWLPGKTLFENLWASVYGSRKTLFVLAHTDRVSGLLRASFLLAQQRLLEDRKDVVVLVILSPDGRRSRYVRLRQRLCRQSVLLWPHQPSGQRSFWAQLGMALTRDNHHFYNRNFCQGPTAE
Collected pIC50 values appear next to each entry.
Kindly note that pIC50 refers to -log10 of the concentration in mol/L and answer with the value alone.

{"columns": ["Molecule", "Target system", "Property label", "Observed"],
 "data": [
  ["C[C@@H]1CN(c2ccc(C#N)c3ncccc23)C[C@H](C)N1Cc1ccc(N2CCNCC2)cc1", "UniProtKB Q9NR96", "pIC50", 7.41],
  ["C[C@@H]1CN(c2ccc(C#N)c3ncccc23)C[C@H](C)N1Cc1ncc(N2CCNCC2)cn1", "UniProtKB Q9NR96", "pIC50", 6.86],
  ["C[C@@H]1CN(c2ccc(C#N)c3ncccc23)C[C@H](C)N1Cc1ccc(N2CCN(C)CC2)cn1", "UniProtKB Q9NR96", "pIC50", 6.92]
]}

# pIC50 of C[C@@H]1CN(c2ccc(C#N)c3ncccc23)C[C@H](C)N1Cc1ccc(N2CCN(C(=O)C3CCCN3)CC2)cn1 (stereo partly drawn) = 7.39

# pIC50 of C[C@@H]1CN(c2ccc(C#N)c3ncccc23)C[C@H](C)N1CC(=O)N1CCc2nc(N3CCNCC3)ccc2C1 = 6.88

# pIC50 of CC1CN(c2ccc(C#N)c3ncccc23)CCN1CC(=O)N1CCC(C2CCN(C)CC2)CC1 (stereo not drawn) = 6.94

# pIC50 of C[C@@H]1CN(c2ccc(C#N)c3ncccc23)C[C@H](C)N1Cc1ccc(N[C@@H]2CNC[C@@H]2F)cn1 = 7.33

# pIC50 of C[C@@H]1CN(c2ccc(C#N)c3ncccc23)C[C@@H](C)N1Cc1ccc(N2CCNCC2)cc1 = 7.19

# pIC50 of CC1CN(c2ccc(C#N)c3ncccc23)CCN1CC(=O)Nc1ccc(N2CCNCC2)cc1 (stereo not drawn) = 6.99

# pIC50 of C[C@@H]1CN(c2ccc(C#N)c3ncccc23)C[C@H](C)N1Cc1ncc(N2CCN(C(=O)CN(C)C)CC2)cn1 = 6.86

# pIC50 of C[C@@H]1CN(c2ccc(C#N)c3ncccc23)C[C@H](C)N1Cc1ccc(N2CCNCC2CO)cc1 (stereo partly drawn) = 7.22

# pIC50 of CC1CN(c2ccc(C#N)c3ncccc23)CCN1CC(=O)Nc1ccc2c(c1)CCNC2 (stereo not drawn) = 6.92

# pIC50 of C[C@@H]1CN(c2ccc(C#N)c3ncccc23)C[C@H](C)N1Cc1ccc(N2CCNCC2)cn1 = 7.08

# pIC50 of C[C@@H]1CN(c2ccc(C#N)c3ncccc23)C[C@H](C)N1CC(=O)N1CCc2ccc(N3CCNCC3)cc2C1 = 7.03

# pIC50 of C[C@@H]1CN(c2ccc(C#N)c3ncccc23)C[C@H](C)N1CC(=O)N1Cc2ccc(N3CCNCC3)cc2C1 = 7.12

* * *

target: UniProt Q9NYK1; experiment: HEK293-Blue-hTLR-7 cells assay (SEAP reporter, R848 stimulation); conditions: HEK293-Blue-hTLR7 cells, R848 ligand, 20 hrs incubation; read-out: HEK/hTLR7 IC50
Sequence (Q9NYK1 27-1049): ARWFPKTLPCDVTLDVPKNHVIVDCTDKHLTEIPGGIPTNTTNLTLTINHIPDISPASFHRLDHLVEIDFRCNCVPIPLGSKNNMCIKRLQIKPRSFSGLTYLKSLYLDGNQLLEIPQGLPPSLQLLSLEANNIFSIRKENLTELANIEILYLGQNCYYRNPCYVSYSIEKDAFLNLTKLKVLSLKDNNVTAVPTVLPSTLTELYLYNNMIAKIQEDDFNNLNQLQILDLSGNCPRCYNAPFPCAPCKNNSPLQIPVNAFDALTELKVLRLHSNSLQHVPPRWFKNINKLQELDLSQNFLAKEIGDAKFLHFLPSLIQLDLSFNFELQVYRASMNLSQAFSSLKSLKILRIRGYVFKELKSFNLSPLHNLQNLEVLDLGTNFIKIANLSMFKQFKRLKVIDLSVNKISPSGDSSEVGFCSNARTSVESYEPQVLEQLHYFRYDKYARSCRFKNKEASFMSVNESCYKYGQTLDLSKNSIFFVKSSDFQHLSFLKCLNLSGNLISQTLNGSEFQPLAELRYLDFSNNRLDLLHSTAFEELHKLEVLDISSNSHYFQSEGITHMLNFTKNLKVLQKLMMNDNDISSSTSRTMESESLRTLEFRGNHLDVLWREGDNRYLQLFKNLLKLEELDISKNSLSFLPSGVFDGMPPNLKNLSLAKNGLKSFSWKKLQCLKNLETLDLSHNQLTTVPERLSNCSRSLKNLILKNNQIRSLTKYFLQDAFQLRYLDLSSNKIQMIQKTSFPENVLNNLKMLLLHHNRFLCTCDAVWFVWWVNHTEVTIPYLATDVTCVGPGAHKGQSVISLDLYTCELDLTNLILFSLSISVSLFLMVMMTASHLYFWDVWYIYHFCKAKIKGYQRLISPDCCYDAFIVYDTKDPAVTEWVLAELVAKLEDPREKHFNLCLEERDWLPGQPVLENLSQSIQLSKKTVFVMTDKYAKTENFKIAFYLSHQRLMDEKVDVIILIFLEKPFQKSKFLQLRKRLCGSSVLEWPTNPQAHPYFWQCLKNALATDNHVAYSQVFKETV
Collected pIC50 values appear next to each entry.
Kindly note that pIC50 refers to -log10 of the concentration in mol/L and answer with the value alone.

{"columns": ["Compound", "pIC50"],
 "data": [
  ["CC1CN(c2ccc(C#N)c3ncccc23)CCN1CC(=O)Nc1ccc2c(c1)CCNC2 (stereo not shown)", 7.22]
]}

# pIC50 of C[C@@H]1CN(c2ccc(C#N)c3ncccc23)C[C@H](C)N1Cc1ccc(N2CC3CNCC(C2)O3)cn1 = 7.11

# pIC50 of C[C@@H]1CN(c2ccc(C#N)c3ncccc23)C[C@H](C)N1CC(=O)N1CCc2ccc(N3CCNCC3)cc2C1 = 7.17

# pIC50 of C[C@@H]1CN(c2ccc(C#N)c3ncccc23)C[C@H](C)N1CC(=O)N1CCc2nc(N3CCNCC3)ccc2C1 = 7.25

# pIC50 of C[C@@H]1CN(c2ccc(C#N)c3ncccc23)C[C@H](C)N1Cc1ccc(N2CCNCC2)cn1 = 7.92

# pIC50 of CC1CN(c2ccc(C#N)c3ncccc23)CCN1CC(=O)N1CCC(C2CCN(C)CC2)CC1 (stereo not shown) = 7.24

# pIC50 of C[C@@H]1CN(c2ccc(C#N)c3ncccc23)C[C@H](C)N1Cc1ccc(N2CCN(C)CC2)cn1 = 7.52
